target: HLA-DRB3 (DRB3*0101) (human); assay: competition ELISA, tracer biotin-LOL 191-210
Examples of binders with documented relative binding activity follow.

{"columns": ["binder", "relative binding activity"],
 "data": [
  ["KEFGADCKYKFENWG (also called MDK12) [MDK 78-92]", "226 IC50 ratio to reference peptide"],
  ["ENWGACDGGTGTKVR (also called MDK14) [MDK 89-103]", "2330 IC50 ratio to reference peptide"],
  ["RGFLLLTLLALLALT (synthetic 15-mer of the human midkine precursor; also called MDK2; peptide 4-18) [MDK 4-18]", "37 IC50 ratio to reference peptide"],
  ["CRVPCNWKKEFGADC (also called MDK10) [MDK 70-84]", "621 IC50 ratio to reference peptide"],
  ["CNWKKEFGADCKYKF (also called MDK11) [MDK 74-88]", "877 IC50 ratio to reference peptide"],
  ["MQHRGFLLLTLLALL (synthetic 15-mer of the human midkine precursor; also called peptide 1-15) [MDK 1-15]", "267 IC50 ratio to reference peptide"]
]}
